Attribution: patent US8921363B2

system: Aβ40 in conditioned medium of cells expressing amyloid precursor protein; test: In vitro BACE cell-based assay (HEK cell assay, Aβ40 sandwich ELISA); conditions: Homo sapiens, HEK293; average IC50; Aβ40 after 24 h incubation
Threshold 8 nM. IC50 below it: true (1). IC50 at it or above: false (0).

q: Is IC50 of NC1=N[C@]2(c3cc(-c4cccnc4F)ccc3Oc3c2cc(-c2ccnc(F)c2)nc3F)c2cccnc21 [Example 17e] strictly below 8 nM?
a: true (1)

q: NC1=NC2(c3cc(-c4cccnc4F)ccc3Oc3c2cc(C2=CCOCC2)nc3F)c2ccccc21 (racemic) [Example 6] ?
a: true (1)

q: NC1=NC2(c3ccccc3O1)c1cc(-c3cccnc3)ccc1Oc1cnc(-c3ccnc(F)c3)cc12 (stereo not shown) [Example 23] ?
a: false (0)

q: NC1=NC2(c3cc(Br)ccc3Oc3cnc(Cl)cc32)c2ccccc21 (racemic) [Example 10c] ?
a: false (0)

q: NC1=N[C@]2(c3cc(-c4cccnc4F)ccc3Oc3cnc(-c4cccnc4F)cc32)c2ccccc21 (single isomer, unassigned) [Example 10-C] ?
a: false (0)

q: NC1=NC2(c3ccccc3O1)c1cc(-c3cncnc3)ccc1Oc1cnc(-c3ccnc(F)c3)cc12 (stereo not shown) [Example 20] ?
a: false (0)
